Cited source for all entries: patent US20230143604A1

# subjectOfTest: full-length human GLP-1R with an N-terminal FLAG tag (human, UniProt P43220 24-463)
# assayNotes: cell-based or functional assay
Starred links: 1 amine or outer side, 2 acyl side, 3 side chain; linkers in the order of their positions; H or OH if unused. Non-standard residues stand in square brackets, D forms with d. Groups on a side chain read outwards from the residue. No end group written: not given here. *: point of attachment. C18 diacid = O=C(O)CCCCCCCCCCCCCCCCC(=O)*; γGlu = O=C(O)[C@H](CCC(=O)[*:2])N[*:1]; NMeY = CN[C@@H](Cc1ccc(O)cc1)C(=O)O; AEEA = NCCOCCOCC(=O)O; E1 = not defined here; K1 = not defined here; Aib = CC(C)(N)C(=O)O
propertyLabel: Human GLP1R cAMP EC50, HEK293T
# output: numeric value plus its unit

Reference set (5 entries):
YXEGTFISDYSIAXDRXAQRDFVEWLLAQSPG (N-methyl Tyr 1; Aib at 2,17; Lys(G5-C18 diacid) at 14; C-terminal OH) [Compound No. 120] ... 15.8 nM
YXEGTFISDYSIAXDRXAQADFVEWLLAQRG (N-terminus H; Aib at 2,17; Lys(G5-C18 diacid) at 14; C-terminal OH) [Compound No. 149] ... 15.8 nM
[NMeY][Aib]EGTFISDYSI[Aib]LDRK([AEEA-AEEA-γGlu-γGlu-C18 diacid])AQ[Aib]NFVNWLLAQRPSSGAPPPS-NH2 [Compound No. 26] ... 38.9 nM
[NMeY][Aib]EGTFISDYSI[K1]LDR[E1]AQ[Aib]K([AEEA-AEEA-γGlu-γGlu-C18 diacid])FVNWLLAQRG-OH (reading uncertain; also: 'K1' at 13 and 'E1' at 17, not explained) [Compound No. 122] ... 3.55 nM
YXEGTFISDYSIAXDRXAQXDFVNWLLAQRPSSGAPPPS (N-methyl Tyr 1; Aib at 2,17,20; Lys(G5-C18 diacid) at 14; C-terminal OH) [Compound No. 43] ... 61.7 nM

Task: Entry YXEGTFISDYSIXXDRXAQRDFVEWLLAQRG (N-terminus H; Aib at 2,13,17; Lys(G5-C18 diacid) at 14; C-terminal OH) [Compound No. 147] needs its Human GLP1R cAMP EC50, HEK293T filled in; supply it.
Result: 1.66 nM
